Tested on: kochia (Kochia scoparia)
Test: Test A greenhouse herbicide test, pre- and postemergence
Assay type: in vivo
Conditions: Preemergence, 125 g ai/ha; 0 to 100 scale where 0 is no effect and 100 is complete control
readout_kind: Kochia plant response rating
Give only the figure.

Look over these answered cases.
CC(=O)Oc1c(C)nn(C)c(=O)c1-c1c(C(F)(F)F)ccc2ccccc12 [Compound 148]    30
COC(=O)Oc1c(Br)nn(C)c(=O)c1-c1c(C)ccc2ccccc12 [Compound 137]    30

Req: // returns reported Kochia plant response rating for input CCOC(=O)Oc1c(C)nn(C)c(=O)c1-c1c(CC)ccc2ccccc12 [Compound 37]
Resp: 30

###

Test system: oilseed rape (Brassica napus)
Experiment: Test C greenhouse herbicide test, pre- and postemergence
Assay type: in vivo
Details: Postemergence, 125 g ai/ha; scale 0 to 100, 0 is no effect, 100 is complete control
Listing of recorded Plant response rating, Oilseed Rape by entry.
Hey, just send me the number, nothing else.

A selection of reference data follows.
Cc1ccc2ccccc2c1-c1c(O)c(Cl)nn(C)c1=O    5
CCC(=O)Oc1c(C)nn(C)c(=O)c1-c1c(C)sc2c(C)cc(C)cc12    5

Shifting focus to the compound that follows.
Req: Suppose we examine the compound Cc1ccc2sc(C)c(-c3c(O)c(C)nn(C)c3=O)c2c1 ; what Plant response rating, Oilseed Rape value has been reported?
Resp: 5

###

Test system: lambsquarters (Chenopodium album)
Test: Test C greenhouse herbicide test, pre- and postemergence
Type: in vivo
Details: postemergence, 62 g ai/ha; scale 0 to 100, 0 no effect, 100 complete control
Measured Lambsquarters plant response rating, listed per entry for reference.
Answer with a number only.

CCOC(=O)Oc1c(C)nn(C)c(=O)c1-c1c(CC)ccc2ccccc12    90
Cc1cc(C)c2ccccc2c1-c1c(O)cnn(C)c1=O    50
Cc1ccc2ccccc2c1-c1c(O)cnn(C)c1=O    50

Req: Report Lambsquarters plant response rating for CC(=O)Oc1c(C)nn(C)c(=O)c1-c1c(C)oc2ccc(C)cc12 please.
Resp: 80

Req: Input CCOC(=O)Oc1c(C)nn(C)c(=O)c1-c1c(C)ccc2ccccc12
Resp: 95

###

The following molecules are shown together with reported Plant response rating, Morningglory values.
System: morningglory (Ipomoea coccinea)
Assay: Test C greenhouse herbicide test, pre- and postemergence
Format: in vivo
Settings: Preemergence, 125 g ai/ha; scale 0 to 100, 0 is no effect, 100 is complete control
Write no unit; give the number alone.

Past entries and their recorded results:
CCOC(=O)Oc1c(C)nn(C)c(=O)c1-c1c(C)sc2c(C)cc(C)cc12    95
COC(=O)Oc1c(Br)nn(C)c(=O)c1-c1c(C)ccc2ccccc12    90
CC(=O)Oc1c(C)nn(C)c(=O)c1-c1c(C)cc(C)c2ccccc12    98

Okay, now this molecule:
Req: Item Cc1cc(C)c2ccccc2c1-c1c(OS(C)(=O)=O)c(C)nn(C)c1=O has what recorded Plant response rating, Morningglory?
Resp: 85

###

Test system: soybean (Glycine max)
Assay: Test C greenhouse herbicide test, pre- and postemergence
Type: in vivo
Conditions: Postemergence, 250 g ai/ha; scale 0 to 100, 0 no effect, 100 complete control; 13 to 15 d
Text: […]
// reported Plant response rating, Soybean per item
Answer field: number only, no words.

// known answers, use as guide
CC(=O)Oc1c(C)nn(C)c(=O)c1-c1c(C)oc2ccc(C)cc12 [Compound 14]    5
CCC(=O)Oc1c(C)nn(C)c(=O)c1-c1c(C)sc2c(C)cc(C)cc12 [Compound 28]    5

As a next step, examine the molecule that follows.
Req: So what's the measured Plant response rating, Soybean for this one? COc1nn(C)c(=O)c(-c2c(C)sc3ccc(Cl)cc23)c1O [Compound 100]
Resp: 5

###

Tested on: kochia (Kochia scoparia)
Test: Test D controlled growth environment herbicide test, pre- and postemergence
Format: in vivo
Conditions: Preemergence, 250 g ai/ha; scale 0 to 100 (0 no effect, 100 complete control)
readout_kind: Plant response rating, Kochia

Cc1ccc(-c2c(O)c(Br)nn(C)c2=O)c2ccccc12 [Compound 52]    90

Req: Record request: Plant response rating, Kochia value, item CCC(=O)Oc1c(C)nn(C)c(=O)c1-c1c(C)sc2ccc(Cl)cc12 [Compound 109]
Resp: 100

Req: Try this molecule too: COc1nn(C)c(=O)c(-c2c(C)ccc3ccccc23)c1O [Compound 54]
Resp: 45

###

Reported values of Galium plant response rating for individual entries
Tested on: galium (catchweed bedstraw, Galium aparine)
Test: Test A greenhouse herbicide test, postemergence
Assay type: in vivo
Details: 500 g ai/ha, 0 to 100 scale, 0 is no effect, 100 is complete control

Cc1cc(C)c2sc(C)c(-c3c(OC(=O)C(C)(C)C)c(C)nn(C)c3=O)c2c1 [Compound 43]    90

Req: Could you share which Galium plant response rating value was measured for COC(=O)Oc1c(C)nn(C)c(=O)c1-c1c(C)sc2c(C)cc(C)cc12 [Compound 81] ?
Resp: 100

Req: Then COc1nn(C)c(=O)c(-c2c(C)ccc3ccccc23)c1O [Compound 54] ?
Resp: 100

Req: Same thing, different compound: Cc1ccc2ccccc2c1-c1c(OC(=O)C2CC2)c(C)nn(C)c1=O [Compound 76]
Resp: 80

Req: Next compound: CCOC(=O)Oc1c(C)nn(C)c(=O)c1-c1c(C)sc2c(C)cc(C)cc12 [Compound 83]
Resp: 100

###

System: pigweed (Amaranthus retroflexus)
Assay: Test C greenhouse herbicide test, pre- and postemergence
Assay type: in vivo
Conditions: Preemergence, 62 g ai/ha; scale 0 to 100, 0 is no effect, 100 is complete control
readout_kind: Plant response rating, Pigweed
Form rule: numeric answer, no unit written next to it.

Worked examples, 3 molecules total:
CCC(=O)Oc1c(C)nn(C)c(=O)c1-c1ccc(Br)c2ccccc12 [Compound 133]    100
Cc1cc(C)c2sc(C)c(-c3c(OC(=O)OC(C)C)c(C)nn(C)c3=O)c2c1 [Compound 67]    90
CC(=O)Oc1c(C)nn(C)c(=O)c1-c1c(C)cc(C)c2ccccc12 [Compound 153]    100

Consider now this further molecule.
Req: Record request: Plant response rating, Pigweed value, item CC(=O)Oc1c(Br)nn(C)c(=O)c1-c1c(C)ccc2ccccc12 [Compound 129]
Resp: 98

###

The reader will find reported Plant response rating, Barnyardgrass values listed item by item below.
System: barnyardgrass (Echinochloa crus-galli)
Test: Test A greenhouse herbicide test, pre- and postemergence
Assay type: in vivo
Details: Preemergence, 500 g ai/ha; 0 to 100 scale where 0 is no effect and 100 is complete control
// keep it numeric: no unit symbol after the value

Below are worked cases with known answers.
Cc1nn(C)c(=O)c(-c2cc(F)cc3ccccc23)c1OS(C)(=O)=O    50
COC(=O)Oc1c(Cl)nn(C)c(=O)c1-c1c(C)sc2ccc(Cl)cc12    30
Cc1ccc2ccccc2c1-c1c(O)c(Cl)nn(C)c1=O    90

Req: Entry CCC(=O)Oc1c(C)nn(C)c(=O)c1-c1c(C)sc2ccc(Cl)cc12 has what Plant response rating, Barnyardgrass?
Resp: 100

Req: // query: Cc1ccc2sc(C)c(-c3c(OCC#N)c(C)nn(C)c3=O)c2c1
Resp: 10

###

Measured Plant response rating, Ragweed values are reported for all entries that follow.
Test system: ragweed (common ragweed, Ambrosia elatior)
Assay: Test A greenhouse herbicide test, pre- and postemergence
Format: in vivo
Conditions: Postemergence, 500 g ai/ha; visual rating after approx. 10 d, 0 to 100 scale (0 no effect, 100 complete control)
When you answer, write just the number.

Here is how some compounds turned out for Plant response rating, Ragweed.
CCCC(=O)Oc1c(C)nn(C)c(=O)c1-c1c(C)sc2c(C)cc(C)cc12 [Compound 106]    90
Cc1nn(C)c(=O)c(-c2ccc(Cl)c3ccccc23)c1OP(C)(C)=O [Compound 187]    100

Req: Lookup: Plant response rating, Ragweed / ragweed (common ragweed, Ambrosia elatior) / CCOC(=O)Oc1c(C)nn(C)c(=O)c1-c1c(C(F)(F)F)ccc2ccccc12 [Compound 146]
Resp: 100

Req: Do the same for COC(=O)Oc1cnn(C)c(=O)c1-c1c(C)ccc2ccccc12 [Compound 143] please
Resp: 70

###

System: foxtail, giant (giant foxtail, Setaria faberii)
Assay: Test A greenhouse herbicide test, pre- and postemergence
Format: in vivo
Conditions: Postemergence, 500 g ai/ha; 0 to 100 scale, 0 is no effect, 100 is complete control
Excerpt: […]
Simple rule here: Foxtail, Giant plant response rating less than 90 is 1, otherwise -1.

Completed entries (count: 5):
Cc1ccc2ccccc2c1-c1c(O)c(C)nn(C)c1=O [Compound 59]    -1
CCOC(=O)Oc1c(C)nn(C)c(=O)c1-c1c(C)sc2ccc(C)cc12 [Compound 82]    1
CC(=O)Oc1c(C)nn(C)c(=O)c1-c1c(C)sc2cc(C)cc(C)c12 [Compound 44]    1
COC(=O)Oc1c(C)nn(C)c(=O)c1-c1c(C)sc2c(C)cc(C)cc12 [Compound 81]    -1
CCC(=O)Oc1c(C)nn(C)c(=O)c1-c1c(C)sc2ccc(C)cc12 [Compound 42]    -1

Req: Could you please tell me whether Foxtail, Giant plant response rating recorded for Cc1ccc2ccccc2c1-c1c(O)cnn(C)c1=O [Compound 56] is less than 90?
Resp: 1

Req: And then CCc1ccc2ccccc2c1-c1c(OC(=O)OC(C)C)c(C)nn(C)c1=O [Compound 39] , what is it?
Resp: 1

Req: Next record, please: Cc1ccc(-c2c(O)c(Br)nn(C)c2=O)c2ccccc12 [Compound 52]
Resp: 1
